Assay: Oral bioavailability in rhesus monkey at 2 mg/kg
Type: ADME, organism-based, Macaca mulatta
Conditions: in vivo
Hi there, I'd appreciate the recorded bioavailability for every entry that follows.
Just the number in %, nothing appended.

Lookup: Input `O=C(Cn1ncccc1=O)Nc1ccc(C[C@@H]2CC[C@H]([C@H](O)c3ccccc3)N2)cc1` , output reported bioavailability.
Found: 46

Lookup: Input `O=S(=O)(Nc1ccc(CCNC[C@H](O)c2cccnc2)cc1)c1ccc(-c2nc(-c3ccc(C(F)(F)F)cc3)cs2)cc1` , output reported bioavailability.
Found: 4

Lookup: Input `C[C@@H](C(=O)Nc1ccc(C[C@@H]2CC[C@H]([C@H](O)c3ccccc3)N2)cc1)n1ncccc1=O` , output reported bioavailability.
Found: 29

Lookup: Input `O=C(Nc1ccc(C[C@@H]2CC[C@H]([C@H](O)c3ccccc3)N2)cc1)[C@@H]1CCc2nccc(=O)n21` , output reported bioavailability.
Found: 23

---

Experiment: Intrinsic clearance in human liver microsomes
Format: ADME
Conditions: read-out: CLH
Hi there, I'd appreciate the recorded CLint scaled for every entry that follows.
Just the number in mL/min/kg, nothing appended.

Lookup: Input `C[C@@H](C(=O)Nc1ccc(C[C@@H]2CC[C@H]([C@H](O)c3ccccc3)N2)cc1)n1ncccc1=O` , output reported CLint scaled.
Found: 10

Lookup: Input `O=C(Nc1ccc(C[C@@H]2CC[C@H]([C@H](O)c3ccccc3)N2)cc1)[C@@H]1CCc2cccc(=O)n21` , output reported CLint scaled.
Found: 19

---

Assay: Induction of phospholidosis in human HepG2 cells incubated overnight by […] in presence of fluorescent labeled phospholipid probe NBD-PE
Assay type: cell-based
Conditions: read-out: A50
Reported metric: AC50

Lookup: Input `O=C(Nc1ccc(C[C@@H]2CC[C@H]([C@H](O)c3cccnc3)N2)cc1)[C@@H]1CCc2ccnn21` , output reported AC50.
Found: 94 µM

Lookup: Input `O=C(Cn1cnccc1=O)Nc1ccc(C[C@@H]2CC[C@H]([C@H](O)c3ccccc3)N2)cc1` , output reported AC50.
Found: > 100 µM

Lookup: Input `C[C@@H](C(=O)Nc1ccc(C[C@@H]2CC[C@H]([C@H](O)c3cccnc3)N2)cc1)n1ncccc1=O` , output reported AC50.
Found: > 100 µM

Lookup: Input `O=C(Cn1cccnc1=O)Nc1ccc(C[C@@H]2CC[C@H]([C@H](O)c3ccccc3)N2)cc1` , output reported AC50.
Found: > 100 µM

---

Molecular target: Beta-3 adrenergic receptor (Macaca mulatta)
Sequence (Q28524 whole entry): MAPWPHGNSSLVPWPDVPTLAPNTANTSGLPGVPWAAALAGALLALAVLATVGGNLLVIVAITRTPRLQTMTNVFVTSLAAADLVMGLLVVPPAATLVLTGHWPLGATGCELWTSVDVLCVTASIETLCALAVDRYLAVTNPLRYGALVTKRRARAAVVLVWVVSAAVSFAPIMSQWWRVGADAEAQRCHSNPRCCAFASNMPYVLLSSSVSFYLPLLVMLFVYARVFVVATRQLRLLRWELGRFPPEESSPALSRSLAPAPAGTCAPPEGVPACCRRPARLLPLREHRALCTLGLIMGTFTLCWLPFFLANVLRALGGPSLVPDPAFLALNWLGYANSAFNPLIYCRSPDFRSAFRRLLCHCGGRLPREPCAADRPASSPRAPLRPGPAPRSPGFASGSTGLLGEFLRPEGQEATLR
Test: Agonist activity at rhesus monkey beta3 adrenergic receptor expressed in CHO cells assessed as accumulation of cAMP after 30 mins by TR-FRET assay
Assay type: functional, cell-based
Hi there, I'd appreciate the recorded pEC50 for every entry that follows.
# pEC50 is unitless: minus log10 of the molar concentration; print number only

Lookup: Enter measured pEC50, system Beta-3 adrenergic receptor (Macaca mulatta), for the compound shown: `O=C(Cn1ncccc1=O)Nc1ccc(C[C@@H]2CC[C@H]([C@H](O)c3ccccc3)N2)cc1`
Found: 8.46

Lookup: Enter measured pEC50, system Beta-3 adrenergic receptor (Macaca mulatta), for the compound shown: `O=S(=O)(Nc1ccc(CCNC[C@H](O)c2cccnc2)cc1)c1ccc(-c2nc(-c3ccc(C(F)(F)F)cc3)cs2)cc1`
Found: 9.37

Lookup: Enter measured pEC50, system Beta-3 adrenergic receptor (Macaca mulatta), for the compound shown: `C[C@@H](C(=O)Nc1ccc(C[C@@H]2CC[C@H]([C@H](O)c3ccccc3)N2)cc1)n1ncccc1=O`
Found: 8.60

Lookup: Enter measured pEC50, system Beta-3 adrenergic receptor (Macaca mulatta), for the compound shown: O=C(Nc1ccc(C[C@@H]2CC[C@H]([C@H](O)c3ccccc3)N2)cc1)[C@@H]1CCc2nccc(=O)n21 [VIBEGRON]
Found: 9.24
